The measurements presented in this section are drawn from PubChem BioAssay (NCI).

- Test system: HL-60(TB) leukemia
- experiment_summary: NCI-60 one-dose screen, 48 h (100 = growth as untreated, 0 = no growth, -100 = all killed)
- condition: 10 µM unless noted
- Procedure: Growth inhibition of the HL-60(TB) human tumor cell line is measured as a screen for anti-cancer activity. Cells are grown in 96 well plates and exposed to the test compound for 48 hours. Compounds are tested at a single concentration, which is 10^-5 M for most compounds. The reported endpoint is percent growth (GI% or GIPRCNT), where numbers from 0 - 100% represent growth inhibition, and numbers from -100% - 0 represent cell death. For example, a value of 40 represents 60% growth inhibition. […]
The panel holds about 83,000 compounds, 20% with a hit somewhere; the sample as a whole holds those more often.
// NB: equality with 50% counts as NO; only growth strictly below is YES

CCc1nc(N)nc(N)c1C#CC(C)c1ccc(-c2ccncc2)cc1Cl (configuration not stated)
YES

Does "C[C@@H]1C(=O)N(C[C@H](Cc2ccccc2)N(Cc2ccccc2)Cc2ccccc2)[C@]1(Cc1ccccc1)C(=O)OC(C)(C)C" have growth strictly under 50%?
NO

"O=c1oc2cc(OS(=O)(=O)C3CC3)ccc2c2c1CCCCCC2" , same question.
NO

Same for "N=C(N)c1ccc(-c2ccc(-c3ccc(-c4cccs4)s3)s2)cc1F"
NO

What about "COCCCNC(=O)c1nnn2c1nc(N)c1cc(Cl)ccc12" ?
NO

Repeat with "COc1ccc(Oc2nc(NC3CCCC3)nc(Sc3ccc(OC)cc3)n2)cc1"
YES

Same for "Clc1cc(Cl)c(OCC#CI)cc1Cl"
YES

Check "COc1cc(Cc2cc(-c3ccccc3)nn(Cc3ccccc3)c2=O)cc(OC)c1OC" too.
YES

Now give it for "CCc1ccc(CCC(=O)Nc2ncc(Cc3ccc(Cl)cc3)s2)o1" too.
YES

Lookup "c1cnc2c(c1)ccc1ncccc12"
NO

Same thing, different compound: Brc1ccc(C2CC(c3cccc(Nc4ccncc4)c3)=NN2c2ccccc2)cc1 (configuration not stated)
NO

Moving on to "CCN1CCN(c2nc(NCCCNc3ccnc4cc(Cl)ccc34)c3ccccc3n2)CC1"
YES
